# System Under Test: GAPDH (Homo sapiens, UniProt P04406 1-335)
# Sequence (P04406 whole entry): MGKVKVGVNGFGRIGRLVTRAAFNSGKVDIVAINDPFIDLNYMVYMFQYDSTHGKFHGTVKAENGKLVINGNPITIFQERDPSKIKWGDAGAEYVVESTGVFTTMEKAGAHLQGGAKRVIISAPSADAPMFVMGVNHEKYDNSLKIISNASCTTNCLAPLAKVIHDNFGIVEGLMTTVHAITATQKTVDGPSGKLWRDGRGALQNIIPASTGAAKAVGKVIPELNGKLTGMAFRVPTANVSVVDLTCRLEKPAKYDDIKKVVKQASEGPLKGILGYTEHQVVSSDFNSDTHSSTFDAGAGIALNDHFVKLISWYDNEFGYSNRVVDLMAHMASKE
# Assay Protocol: EMSA; 10 mM Tris-HCl pH 8.0, 50 mM KCl, 2 mM DTT, 0.5 mM EDTA, 0.1 mg/ml BSA, 0.1 mg/ml heparin, room temperature; FP 30 min with 2 nM RNA; EMSA 20 min plus 10% glycerol and RiboLock, 6% native gel at 4°C; mass photometry without BSA/heparin
# Condition Set: protein: recombinant; tags: N-terminal His; chain copies: 4; single strand
Readout Type: Kd (nM)
All answers are understood in nM, so give the number only.

Please report the recorded Kd for GUGAUUAUUUAUUAUUUAUUUAUUAUUUAUUUAUUUAG (ssRNA) [TNFα-ARE38] . 217
